- ASSAY_REMARKS: qHTS assay to identify small molecule agonists of the NFkB signaling pathway - cell viability counter screen (AID 1159515); note: % is set by controls: 0 for no effect and ±100 for the full control effect; nearly all actives have a fitted effect of over 55% in size
- CONDITION_DESCRIPTION: NFkB-bla ME-180 viability, CellTiter-Glo luminescence, 5 h; series mostly up to 61 µM
Results filed as inconclusive are left out. Calls of active or inactive are those of the source. Calls come from the whole dose curve.

[
  {
    "SMI": "O=c1[nH]c(=O)c2[nH]c(=O)[nH]c2[nH]1",
    "activity, negative = cytotoxic": "1.31% [at 6.95 µM] (inactive)"
  },
  {
    "SMI": "c1ccccc1",
    "activity, negative = cytotoxic": "inactive"
  },
  {
    "SMI": "O=c1cc(O)c(Cl)c[nH]1",
    "activity, negative = cytotoxic": "inactive"
  },
  {
    "SMI": "CCN(CCC#N)c1ccccc1",
    "activity, negative = cytotoxic": "inactive"
  },
  {
    "SMI": "COc1ccc(OC)c(NC(=O)CC(C)=O)c1",
    "activity, negative = cytotoxic": "inactive"
  },
  {
    "SMI": "F[Si-2](F)(F)(F)(F)F",
    "activity, negative = cytotoxic": "inactive"
  },
  {
    "SMI": "CCCCCCCCCCCCC",
    "activity, negative = cytotoxic": "inactive"
  },
  {
    "SMI": "C=C[C@@H](C)CCC=C(C)C",
    "activity, negative = cytotoxic": "inactive"
  },
  {
    "SMI": "CC(C)C(=O)c1ccccc1",
    "activity, negative = cytotoxic": "inactive"
  },
  {
    "SMI": "O=C(CN1CCN(Cc2ccc3c(c2)OCO3)CC1)N1c2ccccc2Sc2ccccc21",
    "activity, negative = cytotoxic": "inactive"
  },
  {
    "SMI": "Cc1nc2ccccc2c(=O)o1",
    "activity, negative = cytotoxic": "inactive"
  },
  {
    "SMI": "COc1ccc(/C=N/NC(=O)c2ccncc2)cc1OC",
    "activity, negative = cytotoxic": "inactive"
  },
  {
    "SMI": "CCCCCCCCCCCCCC(=O)OC",
    "activity, negative = cytotoxic": "inactive"
  },
  {
    "SMI": "Cc1nc(C)nc(N2C[C@@H](C)N(c3ccnc([C@@H](C)O)n3)[C@@H](C)C2)n1",
    "activity, negative = cytotoxic": "inactive"
  }
]
